Molecular target: Tyrosine-protein kinase Lyn (Homo sapiens) (UniProt P07948);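 note: kinase tested as its LYN B splice variant, values given as mean percent inhibition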
Sequence (P07948 2-512 limits assumed): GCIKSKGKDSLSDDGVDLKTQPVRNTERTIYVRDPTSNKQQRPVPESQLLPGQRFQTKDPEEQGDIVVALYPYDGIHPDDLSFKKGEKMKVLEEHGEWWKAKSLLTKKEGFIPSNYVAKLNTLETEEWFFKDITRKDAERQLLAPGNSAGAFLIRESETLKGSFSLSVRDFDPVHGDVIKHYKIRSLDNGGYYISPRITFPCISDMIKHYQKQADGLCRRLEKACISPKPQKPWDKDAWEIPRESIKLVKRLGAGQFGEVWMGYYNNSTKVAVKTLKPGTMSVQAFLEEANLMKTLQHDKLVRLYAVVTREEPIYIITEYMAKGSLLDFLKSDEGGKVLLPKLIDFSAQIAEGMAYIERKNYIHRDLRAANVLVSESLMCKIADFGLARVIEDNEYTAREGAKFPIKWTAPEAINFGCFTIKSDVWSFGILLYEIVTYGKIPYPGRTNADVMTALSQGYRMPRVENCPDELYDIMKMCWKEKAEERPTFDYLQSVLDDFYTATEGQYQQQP
Settings: at 1 µM
Description: GSK_PKIS: LYN B (splice variant) mean inhibition at 1 uM [Nanosyn]
OBSERVATION TYPE: inhibition (%)
Write the number in % without appending the unit.

[Q] Entry O=C(Nc1ccc(Oc2ccc3[nH]c(NC(=O)c4ccco4)nc3c2)cc1)Nc1cc(C(F)(F)F)ccc1F has what inhibition?
[A] 60.5

[Q] Entry COc1ccc(-c2nn3ncccc3c2-c2ccnc(Nc3cccc(C(F)(F)F)c3)n2)cc1 has what inhibition?
[A] 10.3

[Q] Entry CN(C)C(=O)O[C@@H]1CN[C@@H](C#Cc2cc3ncnc(Nc4ccc(OCc5cccc(F)c5)c(Cl)c4)c3s2)C1 has what inhibition?
[A] 1.62

[Q] Entry N#Cc1c(NC(=O)c2ccccc2F)sc2c1CCCC2 has what inhibition?
[A] 0.82

[Q] Entry Cc1cc(O)cc(C)c1/C=C/c1cncc(C(=O)N(C)C)c1 has what inhibition?
[A] 6.35

[Q] Entry FC(F)(F)c1ccc(-c2nn3ncccc3c2-c2ccnc(Nc3ccc4c(c3)OCCO4)n2)cc1 has what inhibition?
[A] 30.8

[Q] Entry C[C@@H](Oc1cc(-n2cnc3ccc(OCC4CCN(C)CC4)cc32)sc1C(N)=O)c1ccccc1C(F)(F)F has what inhibition?
[A] 16.5

[Q] Entry CC(C)c1ccc(Nc2nccc(-c3cnn4ncccc34)n2)cc1 has what inhibition?
[A] 4.7

[Q] Entry COC(=O)c1ccc2c(c1)C(=Cc1cc(Br)c(O)c(Br)c1)C(=O)N2 has what inhibition?
[A] 12.9

[Q] Entry N#Cc1cccc(Nc2nccc(-c3cnn4ncccc34)n2)c1 has what inhibition?
[A] 22.2

Each recorded value in this set is attributed to ChEMBL document CHEMBL1961873.
